Molecular target: HLA-DR (DRA1*01:01 / DRB1*12:01), soluble knob-into-hole Fc heterodimer (human)
Test: ELISA
No end group written: not given here.
Reported endpoint: pKd
Scale: negative log10 of molar concentration, which is what pKd denotes.

Lookup: Name the recorded pKd for KPVSKMRMATPLLMQALPM (also: biotin-labeled) [biotin-labeled human Class II-associated Invariant Chain Peptide (Bio-CLIP)] .
Found: 7.64

These entries and their values trace back to paper doi:10.1101/2025.06.05.658000.
